Molecular target: T1, recombinant human IL-6 (human, UniProt P05231 30-212)
T1 construct: Flowed in solution over the captured antibodies
T1 sequence (P05231 30-212 limits assumed): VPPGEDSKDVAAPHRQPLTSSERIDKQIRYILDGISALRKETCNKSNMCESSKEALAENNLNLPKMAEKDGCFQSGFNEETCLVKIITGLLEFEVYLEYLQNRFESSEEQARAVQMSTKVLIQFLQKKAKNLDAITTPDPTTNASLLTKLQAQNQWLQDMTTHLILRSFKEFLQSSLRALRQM
Assay: SPR (Biacore), purified IgG on Protein A, 37 C
The entries below are paired with their reported kon.
Write down the numeric answer in M⁻¹ s⁻¹ and omit the unit.

These solved cases illustrate the format of a correct answer.
binder | measured-metric | unit-text | endpoint-result
anti-IL-6 antibody, heavy chain G66E, light chain WT (antibody, IgG1, V domains shown, Full IgG1 tested; V domains derived as in m2) VH: EVQLVESGGGLVQPGGSLRLSCAASGFTFSPFAMSWVRQAPGKGLEWVAKISPGGSWTYYSDTVTERFTFSLDTSKSTAYLQMNSLRAEDTAVYYCARQLWGYYALDIWGQGTLVTVSS VL: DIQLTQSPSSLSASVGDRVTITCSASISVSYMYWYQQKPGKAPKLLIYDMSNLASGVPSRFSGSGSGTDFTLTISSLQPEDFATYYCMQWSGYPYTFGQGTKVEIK | kon | M⁻¹ s⁻¹ | 1.91e+06
anti-IL-6 antibody, heavy chain G66D, light chain WT (antibody, IgG1, V domains shown, Full IgG1 tested) VH: EVQLVESGGGLVQPGGSLRLSCAASGFTFSPFAMSWVRQAPGKGLEWVAKISPGGSWTYYSDTVTDRFTFSLDTSKSTAYLQMNSLRAEDTAVYYCARQLWGYYALDIWGQGTLVTVSS VL: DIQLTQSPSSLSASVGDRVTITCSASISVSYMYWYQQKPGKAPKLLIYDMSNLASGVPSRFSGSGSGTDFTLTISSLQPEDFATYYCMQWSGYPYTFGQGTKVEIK | kon | M⁻¹ s⁻¹ | 1.96e+06

Here is another binder to look at.
GET /values?readout=kon&item= anti-IL-6 antibody, heavy chain G26R, light chain WT (antibody, IgG1, V domains shown, Full IgG1 tested; V domains derived as in m2) VH: EVQLVESGGGLVQPGGSLRLSCAASRFTFSPFAMSWVRQAPGKGLEWVAKISPGGSWTYYSDTVTGRFTFSLDTSKSTAYLQMNSLRAEDTAVYYCARQLWGYYALDIWGQGTLVTVSS VL: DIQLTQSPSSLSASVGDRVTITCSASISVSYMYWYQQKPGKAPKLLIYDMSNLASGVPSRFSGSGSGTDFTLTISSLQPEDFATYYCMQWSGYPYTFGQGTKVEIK 702000
